# Tested on: Pseudomonas aeruginosa
# experimental-details: Potentiation of colistin-induced antibacterial activity against Pseudomonas aeruginosa assessed as colistin MIC at 50 uM incubated for 20 hrs by susceptibility testing (reference value: 1 to 2 ug/ml)
# Type: functional
// MIC lookup, one value per entry
# number only, unit µg/mL dropped from output

Below: 5 molecules and their reported MIC.
CCCCCCCCCc1ccccc1C(=O)NS(=O)(=O)c1ccc([N+](=O)[O-])cc1; 2
CCCCCCCCCc1ccccc1C(=O)NS(=O)(=O)c1cccc(F)c1; 1
CCCCCCCCCc1ccccc1C(=O)NS(=O)(=O)c1ccccc1Br; 1
CCCCCCCCCc1ccccc1C(=O)NS(=O)(=O)c1ccc(Cl)cc1; 4
CCCCCCCCCc1ccccc1C(=O)NS(=O)(=O)c1ccc(F)cc1; 1

Value of MIC reported for the molecule CCCCCCCCCc1ccccc1C(=O)NS(=O)(=O)c1ccc(Br)cc1 is 8

Value of MIC reported for the molecule CCCCCCCCCc1ccccc1C(=O)NS(=O)(=O)C(C)(C)C is 1

Value of MIC reported for the molecule CCCCCCCCCc1ccccc1C(=O)NS(=O)(=O)c1ccc(I)cc1 is 8

Value of MIC reported for the molecule CCCCCCCCCc1ccccc1C(=O)NS(=O)(=O)CCC(F)(F)F is 1

Value of MIC reported for the molecule CCCCCCCCCc1ccccc1C(=O)NS(=O)(=O)C1CC1 is 1

Value of MIC reported for the molecule CCCCCCCCCc1ccccc1C(=O)NS(=O)(=O)c1ccccc1 is 1

Value of MIC reported for the molecule CCCCCCCCCc1ccccc1C(=O)NS(=O)(=O)c1ccc(OC)cc1 is 1
